test system: V. cholerae SAD30; construct: SAD30; design: species or system S. aureus MSSA476 (TSB) or V. cholerae SAD30 (LB); 384-well bacterial growth screen at 25 uM, OD600 relative to DMSO control; details: relative growth, OD600, LB; 25 µM; inhibitor
In all, about 3,200 compounds went through this assay and about 110 (3.4%) showed an effect of 50% or more. Only a selection was taken, and strong results are over-represented in it overall.
Provide the recorded % of control remaining for the entries that follow.
Value expressed in %; do not type the unit.

-- ask Look up V. cholerae SAD30 data: % of control remaining of CC(C)Oc1ccc2[nH]cc(C(=O)CCl)c2c1 [10-E03] , then report it.
-- reply 105.669

-- ask Look up V. cholerae SAD30 data: % of control remaining of Cc1cc(C(=O)CCl)c(C)n1-c1ccon1 [10-F06] , then report it.
-- reply 37.8726

-- ask Look up V. cholerae SAD30 data: % of control remaining of Cc1cccc(-n2c(C)cc(C(=O)CCl)c2C)c1 [10-A22] , then report it.
-- reply 108.163

-- ask Look up V. cholerae SAD30 data: % of control remaining of O=C(CCl)c1ccc(F)cc1F [10-I18] , then report it.
-- reply 22.7547

-- ask Look up V. cholerae SAD30 data: % of control remaining of CC(C)Cn1c(N)c(C(=O)CCl)c(=O)[nH]c1=O [10-F08] , then report it.
-- reply 101.305

-- ask Look up V. cholerae SAD30 data: % of control remaining of Cc1cc(-n2c(C)cc(C(=O)CCl)c2C)no1 [10-C18] , then report it.
-- reply 106.137

-- ask Look up V. cholerae SAD30 data: % of control remaining of Cc1cc(C(=O)CCl)c(C)n1-c1ccccc1 [10-L20] , then report it.
-- reply 100.682

-- ask Look up V. cholerae SAD30 data: % of control remaining of O=C(CCl)c1c[nH]c2ccccc12 [10-B05, 2-chloro-1-(1H-indol-3-yl)ethan-1-one] , then report it.
-- reply 108.475

-- ask Look up V. cholerae SAD30 data: % of control remaining of Cc1cc(C)cc(-n2c(C)cc(C(=O)CCl)c2C)c1 [10-E04] , then report it.
-- reply 92.1099

-- ask Look up V. cholerae SAD30 data: % of control remaining of Cc1cc(C(=O)CCl)c(C)n1-c1ccccn1 [10-C16] , then report it.
-- reply 41.1455

-- ask Look up V. cholerae SAD30 data: % of control remaining of O=C(CCl)c1c(-c2ccc(F)cc2)[nH]c2ccccc12 [10-P04] , then report it.
-- reply 95.8504

All values here come from paper PMC11995724.
